# assay: AUC (0 to infinity) in Sprague-Dawley rat at 50 mg/kg, po
# Format: ADME, organism-based, Plasma
# Set-up: time infinity, dose 50 mg/kg, route oral
# setup conditions: Sprague-Dawley, plasma
Exercise: for every item that follows, state its recorded AUC(0-inf).
Give bare numbers, in ng·h/mL.

Solved cases below.
structure_smiles=O=C1O[C@@H](Cn2ccnn2)CN1c1ccc(N2CCN(Cc3cccc([N+](=O)[O-])c3)CC2)c(F)c1 test_value=74500
structure_smiles=O=C1O[C@@H](Cn2ccnn2)CN1c1ccc(N2CCN(Cc3ccoc3)CC2)c(F)c1 test_value=85800

Now for a further compound.
Quote AUC(0-inf) reported for Nc1ccc(CN2CCN(c3ccc(N4C[C@H](Cn5ccnn5)OC4=O)cc3F)CC2)cc1 please. 18100

---

# assay: Cmax in Sprague-Dawley rat at 50 mg/kg, po
# Assay type: ADME, organism-based
# Set-up: dose 50 mg/kg, route oral
# setup conditions: in vivo
measure: Cmax (ng/mL)
Numbers only, in ng/mL.

I have 4 compounds here; please give me Cmax for each one.
1. O=C1O[C@@H](Cn2ccnn2)CN1c1ccc(N2CCN(Cc3ccc([N+](=O)[O-])o3)CC2)c(F)c1
2. O=C1O[C@@H](Cn2ccnn2)CN1c1ccc(N2CCN(Cc3cccc([N+](=O)[O-])c3)CC2)c(F)c1
3. Nc1ccc(CN2CCN(c3ccc(N4C[C@H](Cn5ccnn5)OC4=O)cc3F)CC2)cc1
4. O=C1O[C@@H](Cn2ccnn2)CN1c1ccc(N2CCN(Cc3ccoc3)CC2)c(F)c1

16900
10800
2320
10700

---

Assignment: determine reported ED50 for the given compounds.
# Test system: Staphylococcus aureus
# assay: Antimicrobial activity against methicillin-resistant Staphylococcus aureus 05-2 infected in iv dosed KunMing SPF mouse
# Format: functional
One number for each entry, in mg/kg.

compound=O=C1O[C@@H](Cn2ccnn2)CN1c1ccc(N2CCN(Cc3ccco3)CC2)c(F)c1 measure=ED50 test_value=12

Now let's try a different one.
Return ED50 for the following compound: CN[C@H](CC(C)C)C(=O)N[C@H]1C(=O)N[C@@H](CC(N)=O)C(=O)N[C@H]2C(=O)N[C@H]3C(=O)N[C@H](C(=O)N[C@H](C(=O)O)c4cc(O)cc(O)c4-c4cc3ccc4O)[C@H](O)c3ccc(c(Cl)c3)Oc3cc2cc(c3O[C@@H]2O[C@H](CO)[C@@H](O)[C@H](O)[C@H]2O[C@H]2C[C@](C)(N)[C@H](O)[C@H](C)O2)Oc2ccc(cc2Cl)[C@H]1O [VANCOMYCIN] 6.54

---

# assay: Tmax in Sprague-Dawley rat at 50 mg/kg, po
# Assay type: ADME, organism-based
# Design: dose 50 mg/kg, route oral
# setup conditions: in vivo
measure: Tmax (h)
One number for each entry, in h.

Below, each entry is followed by its recorded Tmax result.
structure_smiles=O=C1O[C@@H](Cn2ccnn2)CN1c1ccc(N2CCN(Cc3ccoc3)CC2)c(F)c1 test_value=1.9
structure_smiles=O=C1O[C@@H](Cn2ccnn2)CN1c1ccc(N2CCN(Cc3ccc([N+](=O)[O-])o3)CC2)c(F)c1 test_value=0.5

Provide Tmax values for the following items, in order.
1. Nc1ccc(CN2CCN(c3ccc(N4C[C@H](Cn5ccnn5)OC4=O)cc3F)CC2)cc1
2. O=C1O[C@@H](Cn2ccnn2)CN1c1ccc(N2CCN(Cc3cccc([N+](=O)[O-])c3)CC2)c(F)c1

1: 1; 2: 2.3

Where these numbers come from: ChEMBL document CHEMBL1151774
